molecular target: (^3 H)naloxone binding sites; assay: competition binding assay with (3H)naloxone on rat brain membranes; details: membranes incubated with (3H)naloxone 1 nM and increasing ligand concentrations; read-out: Affinity constants (Ki nM) in competition assays
Listed here are molecules together with their documented Ki.

molecule	Ki [nM]
CN1CC[C@]23c4c5ccc(O)c4O[C@H]2C(=NN)CC[C@H]3[C@H]1C5 [dihydromorphinone hydrazone]	6
COc1ccc2c3c1O[C@H]1C(=NNc4ccccc4)CC[C@H]4[C@@H](C2)N(C)CC[C@]314 [Dihydrocodeinone-phenylhydrazone]	323
CN1CC[C@]23c4c5ccc(O)c4O[C@H]2C(=NNC(N)=O)CC[C@H]3[C@H]1C5 [dihydromorphinone semicarbazone]	3
COc1ccc2c3c1O[C@H]1C(=NNc4ccccc4)CC[C@@]4(O)[C@@H](C2)N(C)CC[C@]314 [Oxycodone-phenylhydrazone]	1150
COc1ccc2c3c1O[C@H]1C(=NO)CC[C@@]4(O)[C@@H](C2)N(C)CC[C@]314 [Oxycodone-oxime, 14-HYDROXY-DIHYDROCODEINONE-OXIME]	32
COc1ccc2c3c1O[C@H]1C(=NNC(N)=O)CC[C@@]4(O)[C@@H](C2)N(C)CC[C@]314	588
CN1CC[C@]23c4c5ccc(O)c4O[C@H]2C(=NO)CC[C@@]3(O)[C@H]1C5	2

###

molecular target: (^3 H)naloxone binding sites; assay: competition binding assay with (3H)naloxone on rat brain membranes; conditions: membranes incubated with (3H)naloxone 1 nM and increasing ligand concentrations; read-out: Affinity constants (Ki nM) in competition assays
readout-type: log10(Ki) (log10 of the value in nM)

molecule	log10(Ki)
COc1ccc2c3c1O[C@H]1C(=NN)CC[C@@]4(O)[C@@H](C2)N(C)CC[C@]314 [Oxycodone hydrazone, 14-OH-DIHYDROCODEINONE-HYDRAZONE (TRANS)]	2.90
CN1CC[C@]23c4c5ccc(O)c4O[C@H]2C(=NNc2ccccc2)CC[C@@]3(O)[C@H]1C5 [oxymorphone phenylhydrazone]	1.30
COc1ccc2c3c1O[C@H]1C(=NO)CC[C@H]4[C@@H](C2)N(C)CC[C@]314 [Dihydrocodeinone-oxime, DIHYDROCODEINON-OXIME]	1.72
CN1CC[C@]23c4c5ccc(O)c4O[C@H]2C(=NN)CC[C@@]3(O)[C@H]1C5 [oxymorphone hydrazone]	0.30
CN1CC[C@]23c4c5ccc(O)c4O[C@H]2C(=NO)CC[C@H]3[C@H]1C5 [dihydromorphinone oxime]	0.30
CN1CC[C@]23c4c5ccc(O)c4O[C@H]2C(=NNc2ccccc2)CC[C@H]3[C@H]1C5 [dihydromorphinone phenylhydrazone]	0.70
CN1CC[C@]23c4c5ccc(O)c4O[C@H]2C(=NNC(N)=O)CC[C@@]3(O)[C@H]1C5	0.60

###

tested on: rat; experiment: analgetic effect, hot plate (rat); format: in vivo; conditions: Rattus norvegicus; read-out: hot plate (rat) ED50
Structures can show the parent of a compound that is named as a salt.
Listed here are compounds together with their documented ED50.

compound	ED50
COc1ccc2c3c1O[C@H]1C(=NO)CC[C@H]4[C@@H](C2)N(C)CC[C@]314 [Dihydrocodeinone-oxime, DIHYDROCODEINON-OXIME]	4.2 mg/kg
COc1ccc2c3c1O[C@H]1C(=NNC(N)=O)CC[C@H]4[C@@H](C2)N(C)CC[C@]314 [Dihydrocodeinone-semicarbazone.HCl, dihydrocodeinone-semicarbazone]	0.38 mg/kg
COc1ccc2c3c1O[C@H]1C(=NNC(N)=S)CC[C@@]4(O)[C@@H](C2)N(C)CC[C@]314 [Oxycodone-thiosemicarbazone.HCl, Oxycodone-thiosemicarbazone]	8.5 mg/kg
